# Tested on: luciferase reaction (BacTiter-Glo)
# TEST SUMMARY: Interference assay (inhibition of the BacTiter-Glo luciferase reaction)
# Type: biochemical
# Design: concentration or dose not given beside the values
# STUDY CONDITIONS: ATP interference assay

{"columns": ["MOLECULE", "% Control luminiscence [%]"],
 "data": [
  ["Cc1cccc2nc(-c3cccc(-c4cccc(CNCCN5CCNCC5)c4)c3)[nH]c12", 100],
  ["CC(CCCCCC(=O)Nc1ccc(CC(C)NCCc2cccc(Cl)c2)cc1)NCCc1cccc(Cl)c1 (centres unmarked)", 100],
  ["CCCCCCCN1CC[C@@H](CCCc2ccnc3ccc(OC)cc23)[C@@H](CCN)C1", 100],
  ["COc1ccc(NC(=O)C2c3ccccc3C(=O)N(CC(C)C)C2c2cccs2)cc1OC (centres unmarked)", 100],
  ["CCOCn1c(-c2ccccc2)cc2c3c(N)nc(N)nc3ccc21", 94],
  ["C=CCN(C(=O)c1ccc(Cl)c([N+](=O)[O-])c1)c1nc(-c2ccccc2)cs1", 100],
  ["COc1ccc(CNC2Cc3ccccc3C2)cc1-c1ccc(S(=O)(=O)NCCN2CCCC2)cc1", 100],
  ["N=c1n(Cc2ccc(Cl)cc2)c2ccccc2n1CC(O)c1ccc(Cl)c(Cl)c1 (centres unmarked)", 99],
  ["COc1cc2nc(N3CCC(CNC(=O)c4ccc(-c5ccc(-c6noc(C)n6)cc5)cc4)CC3)nc(N)c2cc1OC", 97],
  ["Cc1cc(-c2cccc(CNC3CCCC3)c2)ccc1S(=O)(=O)NCCN1CCCC1", 100],
  ["Cc1ccc(-n2nc(-c3ccccc3)c3cc(C(=O)NCCN)sc32)cc1", 99],
  ["S=C(NN=Cc1ccccn1)Nc1ccc2c(c1)OCCO2", 100],
  ["Cc1ccccc1OCC(O)CNC1CCC(NCC(O)COc2ccccc2C)CC1 (centres unmarked)", 99],
  ["c1cc(CNCCN2CCNCC2)cc(-c2cccc(-c3nc4ccccc4[nH]3)c2)c1", 100],
  ["Cc1cccc2nc(-c3ccc(-c4cccc(CNCCN5CCNCC5)c4)cc3)[nH]c12", 100],
  ["CN1CCN(CC2(Nc3nccc(NCCc4cn(C)c5ccccc45)n3)CCCCC2)CC1", 95],
  ["CCn1ncc2c(NC3CCOCC3)c(CNC(=O)c3ccnn3C)c(C)nc21", 100]
]}

====

Listed next: entries and their corresponding inhibition at 5 µM.
# Test system: P. falciparum stage V gametocytes
# TEST SUMMARY: microbe, parasite or virus in culture
# Design: BacTiter-Glo ATP luminescence viability of purified stage V gametocytes in 384-well plates, per cent inhibition versus DMSO
# STUDY CONDITIONS: Plasmodium falciparum, 48 h, read-out: % Inhibition

{"columns": ["COMPOUND", "inhibition at 5 µM [%]"],
 "data": [
  ["COc1ccc(C=NNc2c3ccccc3nc3ccccc23)c2ccccc12 [TCMDC-142231]", -139],
  ["COc1ccc2nccc(NN=Cc3ccc(F)cc3)c2c1 [TCMDC-142132]", 32.1],
  ["Cc1cc(F)ccc1Nc1nc(N(C)c2ccccc2)c2cc(OCCCN(C)C)ccc2n1 [TCMDC-142332]", 57.7],
  ["O=c1c(NCCCN(Cc2ccc(F)cc2)c2ccccn2)c(NCc2cccnc2)c1=O [TCMDC-142311]", 48],
  ["Fc1cccc(C=NNc2ccnc3ccc(C(F)(F)F)cc23)c1 [TCMDC-142151]", -62.1],
  ["CC(C)c1cc(Oc2c(I)cc(CCN=C(N)N)cc2I)ccc1O [TCMDC-142299]", 38.1],
  ["CCCCN(CCCC)CCC(O)C(=Cc1ccc(Cl)cc1Cl)c1ccc(C(F)(F)F)cc1N (stereo not shown) [TCMDC-142318]", -17.1],
  ["CCCCCNc1nc(Nc2ccccc2C)nc2ccccc12 [TCMDC-142328]", 26.7],
  ["NC(=NCc1ccccc1)Nc1nc(-c2ccc(OCCCn3ccnc3)cc2)cs1 [TCMDC-142335]", 8.33],
  ["O=[N+]([O-])c1cccc(/C=N/Nc2ccnc3cc(F)ccc23)c1 [TCMDC-142098]", 42.1],
  ["CN=C(Nc1c(Cl)cccc1Cl)N(C)C [TCMDC-142121]", 5.95],
  ["CCN(CC)Cc1cc(NC(=O)c2ccccc2O)ccc1Oc1ccc(Cl)cc1 [TCMDC-142283]", -6.19],
  ["CCOC(=O)c1cnc2c(OC)cc(OC)c(Cl)c2c1Nc1cccc(C)c1 [TCMDC-142241]", -99.9],
  ["Cc1cc(N/N=C/c2ccccc2[N+](=O)[O-])c2ccc(F)cc2n1 [TCMDC-142168]", -45.1],
  ["CCOc1cc(NCCSCc2nc[nH]c2C)nc2ccccc12 [TCMDC-142294]", 26.1],
  ["COc1ccc2c(NN=Cc3ccccc3F)ccnc2c1 [TCMDC-142133]", 84.6],
  ["Cc1ccc(Cc2cnc(NCCSCc3ccc(CN(C)C)s3)[nH]c2=O)cn1 [TCMDC-142304]", -3.6],
  ["CN(C(=O)c1ccc(Br)cc1)c1ccccc1[N+](=O)[O-] [TCMDC-142245]", -8],
  ["CC(C)c1cc(Oc2c(I)cc(CCNCc3ccccc3)cc2I)ccc1O [TCMDC-142300]", -73.5]
]}
